- assayed-target: UniProt:Q96P20
- Sequence (Q96P20 whole entry): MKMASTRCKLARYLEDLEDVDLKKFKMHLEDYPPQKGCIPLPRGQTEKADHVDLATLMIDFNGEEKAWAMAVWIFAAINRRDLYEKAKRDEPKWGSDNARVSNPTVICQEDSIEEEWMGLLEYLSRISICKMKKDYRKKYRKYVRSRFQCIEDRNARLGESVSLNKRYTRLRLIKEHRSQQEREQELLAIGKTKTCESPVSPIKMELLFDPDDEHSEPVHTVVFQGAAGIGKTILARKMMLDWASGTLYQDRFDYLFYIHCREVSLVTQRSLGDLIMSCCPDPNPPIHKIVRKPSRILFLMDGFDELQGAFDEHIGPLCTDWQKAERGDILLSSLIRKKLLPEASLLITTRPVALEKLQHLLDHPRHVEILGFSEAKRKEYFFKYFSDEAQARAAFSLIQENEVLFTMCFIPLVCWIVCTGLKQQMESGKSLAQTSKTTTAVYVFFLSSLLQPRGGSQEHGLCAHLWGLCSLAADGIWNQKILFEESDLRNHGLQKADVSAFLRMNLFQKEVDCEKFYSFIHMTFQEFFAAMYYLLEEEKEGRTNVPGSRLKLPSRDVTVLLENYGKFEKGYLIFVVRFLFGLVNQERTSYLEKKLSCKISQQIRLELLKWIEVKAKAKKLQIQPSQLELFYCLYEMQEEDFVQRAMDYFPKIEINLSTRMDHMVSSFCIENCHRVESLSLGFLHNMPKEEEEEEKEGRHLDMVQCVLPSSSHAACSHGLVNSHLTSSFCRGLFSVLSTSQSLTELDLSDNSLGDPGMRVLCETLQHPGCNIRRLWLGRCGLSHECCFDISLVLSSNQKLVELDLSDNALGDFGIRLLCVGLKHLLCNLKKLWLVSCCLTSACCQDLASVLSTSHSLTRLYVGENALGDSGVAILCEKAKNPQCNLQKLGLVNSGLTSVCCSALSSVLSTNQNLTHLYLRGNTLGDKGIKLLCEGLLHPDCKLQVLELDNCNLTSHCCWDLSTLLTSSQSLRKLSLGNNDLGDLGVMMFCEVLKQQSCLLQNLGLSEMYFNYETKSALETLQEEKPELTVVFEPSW
- test-protocol: Human whole blood IL1β release assay
- Type: cell-based
- Design: Human whole blood in Li-heparin tubes was obtained from healthy donors; from tissue; host or cells: human whole blood from healthy donors, LPS-primed, nigericin-stimulated
- experimental-setup: human whole blood, 1 μg/ml LPS, nigericin 10 μM, IL-1β release; read-out: HWB IC50
- Method: Human Whole Blood IL1β Release Assay For systemic delivery, the ability to inhibit NLRP3 when the compounds are present within the bloodstream is of great importance. […] Human whole blood in Li-heparin tubes was obtained from healthy donors from a volunteer donor panel. • 1. […] IL-1β was measured according to the manufacturer protocol (Perkin Elmer-AlphaLisa IL-1 Kit AL220E-5000) • 8. […]
Structures can show the parent of a compound that is named as a salt.
Measured IC50 by item

[Q] Identify the reported IC50 for the following entry. COc1nccnc1S(=O)(=O)NC(=O)Nc1c2c(cc3c1CCC3)CCC2 [Example 8, Potassium Salt]
[A] < 5000 nM

[Q] Identify the reported IC50 for the following entry. COc1cc(-c2ccc3c(c2NC(=O)NS(=O)(=O)c2ccnc(C(C)C)c2)CCC3)ccn1 [Example 60, sodium salt]
[A] < 2500 nM

[Q] Identify the reported IC50 for the following entry. `CC(C)c1cc(F)cc(-c2ccnc(C#N)c2)c1NC(=O)NS(=O)(=O)c1cc(N(C)C)cnn1`
[A] < 2500 nM
